biological target: hA1AR (Homo sapiens, UniProt P30542); test: Radioligand binding in membranes of CHO cells expressing hA1AR, [3H]N6-R-phenylisopropyladenosine; details: (h); Ki; read-out: A1AR % inhibition or Ki
Sequence (P30542 whole entry): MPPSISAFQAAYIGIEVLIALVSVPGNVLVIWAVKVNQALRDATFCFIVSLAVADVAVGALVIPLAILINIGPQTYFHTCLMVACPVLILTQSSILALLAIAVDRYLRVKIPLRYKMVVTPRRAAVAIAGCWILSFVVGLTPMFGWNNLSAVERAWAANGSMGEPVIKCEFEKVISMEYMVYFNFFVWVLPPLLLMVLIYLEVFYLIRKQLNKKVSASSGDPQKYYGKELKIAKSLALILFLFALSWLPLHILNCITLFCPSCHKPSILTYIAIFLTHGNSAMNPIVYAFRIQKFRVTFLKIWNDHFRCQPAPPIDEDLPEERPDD
pKi: −log10 of the molar value.
The entries below come with measured pKi values attached.
Metric: pKi

Compound | System under test | Test result
O[C@H]1[C@H](n2cnc3c(NC(C4CCC4)C4CCC4)ncnc32)[C@H]2C[C@@]2(CCl)[C@H]1O | hA1AR (Homo sapiens, UniProt P30542) | 7.49
Nc1ncnc2c1ncn2[C@@H]1O[C@H](C(=O)NC2CC2)[C@@H](O)[C@H]1O [Compound 17, reference compound] | hA1AR (Homo sapiens, UniProt P30542) | 8.72
CCSC[C@H]1O[C@@H](n2cnc3c(NC(C4CCC4)C4CCC4)ncnc32)[C@H](O)[C@@H]1O | hA1AR (Homo sapiens, UniProt P30542) | 7.20
Nc1ncnc2c1ncn2[C@@H]1O[C@H](C(=O)NCCO)[C@@H](O)[C@H]1O [Compound 18, reference compound] | hA1AR (Homo sapiens, UniProt P30542) | 7.89

* * *

biological target: hA3AR (Homo sapiens, UniProt P0DMS8); construct: expressed in transfected cells; host or cells: CHO; test: Radioligand binding in membranes of CHO cells expressing hA3AR; details: read-out: A3AR % inhibition or Ki
Metric: inhibition at 10 µM (%)

Mol smiles | Test result
CCOC(=O)[C@@]12C[C@@H]1[C@@H](n1cnc3c(NC(C4CC4)C4CC4)nc(Cl)nc31)[C@@H]1OC(C)(C)O[C@@H]12 | 41
COC(=O)c1ncn([C@H]2[C@H](O)[C@H](O)[C@]3(CO)C[C@H]23)n1 | 22
OC[C@@]12C[C@@H]1[C@@H](n1cnc3c(NC(C4CCC4)C4CCC4)nc(Cl)nc31)[C@H](O)[C@@H]2O | 25
Nc1ncnc2c1ncn2[C@@H]1O[C@H](C(=O)O)[C@@H](O)[C@H]1O | 32

* * *

test: Plasma protein binding at 10 μM; format: in vitro ADME, mouse; conditions: unbound percent ± standard deviation

Compound | Relation qualifier | mouse, % free (%)
OC[C@@]12C[C@@H]1[C@@H](n1cnc3c(NC(C4CCC4)C4CCC4)ncnc31)[C@H](O)[C@@H]2O | = | 27.5
OC[C@H]1O[C@@H](n2cnc3c(NC(C4CCC4)C4CCC4)nc(Cl)nc32)[C@H](O)C1O (stereo in doubt) | = | 4.74
NC(=O)c1ncn([C@H]2[C@H](O)[C@H](O)[C@]3(CO)C[C@H]23)n1 | > | 80
OC[C@H]1O[C@@H](n2cnc3c(NC(C4CCC4)C4CCC4)ncnc32)[C@H](O)C1O (stereo in doubt) | = | 20.6
O[C@H]1[C@H](n2cnc3c(N[C@H]4C[C@H]5CC[C@@H]4C5)nc(Cl)nc32)[C@H]2C[C@@]2(CCl)[C@H]1O | = | 2.95

* * *

Molecular target: hA3AR (Homo sapiens)
Construct: expressed in transfected cells; host or cells: CHO
Sequence (P0DMS8 1-318): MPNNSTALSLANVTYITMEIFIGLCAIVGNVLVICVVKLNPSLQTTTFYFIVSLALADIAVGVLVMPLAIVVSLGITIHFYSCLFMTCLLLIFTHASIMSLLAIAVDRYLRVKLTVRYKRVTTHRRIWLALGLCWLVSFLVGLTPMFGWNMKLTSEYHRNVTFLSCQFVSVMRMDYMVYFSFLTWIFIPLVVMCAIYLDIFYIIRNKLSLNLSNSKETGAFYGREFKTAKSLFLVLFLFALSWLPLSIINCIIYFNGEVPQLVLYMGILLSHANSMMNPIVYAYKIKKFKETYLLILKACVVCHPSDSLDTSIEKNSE
Test: Radioligand binding in membranes of CHO cells expressing hA3AR
Details: (h); Ki; read-out: A3AR % inhibition or Ki
pKi: −log10 of the molar value.

Compound | pKi
CNC(=O)[C@@]12C[C@@H]1[C@@H](n1cnc3c(NC4CCCC4)nc(Cl)nc31)[C@H](O)[C@@H]2O [Compound 6e, reference compound] | 8.43
O[C@@H]1[C@H](O)[C@@H](CCl)O[C@H]1n1cnc2c(NC(C3CCC3)C3CCC3)ncnc21 [Compound 10] | 4.78
CCOC(=O)[C@@]12C[C@@H]1[C@@H](n1cnc3c(NC(C4CC4)C4CC4)nc(Cl)nc31)[C@H](O)[C@@H]2O [Compound 32] | 6.63
CNC(=O)[C@H]1O[C@@H](n2cnc3c(N)ncnc32)[C@H](O)[C@@H]1O [Compound 15, reference compound] | 7.61
O[C@H]1[C@H](n2cnc3c(NC(C4CCC4)C4CCC4)nc(Cl)nc32)[C@H]2C[C@@]2(CCl)[C@H]1O [Compound 27] | 5.42
O[C@H]1[C@H](n2cnc3c(NC(C4CCC4)C4CCC4)nc(Cl)nc32)[C@H]2C[C@@]2(CSc2ccccc2F)[C@H]1O [Compound 28] | 5.01
